# PARTICULARS: 240 K; 101.33 kPa; Crystal; relaxation calorimetry
EXPERIMENTAL_ENDPOINT: molar entropy (J/K/mol)
Please give a number only; it is taken to be in J/K/mol.

response.value for OC[C@@H](O)[C@@H](O)CO [meso-1,2,3,4-butanetetrol] (field: molar entropy) = 133.01

response.value for OC[C@@H](O)[C@@H](O)[C@H](O)[C@H](O)CO [D-mannitol] (field: molar entropy) = 181.8

response.value for OC[C@@H](O)[C@H](O)[C@@H](O)CO [xylitol] (field: molar entropy) = 157.72

---

# METHOD_NOTES: molar heat capacity at constant pressure
# PARTICULARS: 320 K; 101.33 kPa; Crystal; Small sample (50 mg) DSC
Kindly supply the reported molar heat capacity at constant pressure values for the records listed here.
Please give a number only; it is taken to be in J/K/mol.

response.value for OC[C@H](O)C(O)[C@@H](O)CO [L-(-)-arabitol] (field: molar heat capacity at constant pressure) = 226.85

response.value for `OC[C@@H](O)[C@H](O)[C@@H](O)CO` (field: molar heat capacity at constant pressure) = 228.13

response.value for `OC[C@@H](O)[C@@H](O)[C@H](O)[C@H](O)CO` (field: molar heat capacity at constant pressure) = 250.2

The reported measurements were obtained from the NIST ThermoML archive (doi:10.1016/j.jct.2017.08.004).
